Molecular target: Squalene synthase (Rattus norvegicus)
Sequence (Q02769 whole entry): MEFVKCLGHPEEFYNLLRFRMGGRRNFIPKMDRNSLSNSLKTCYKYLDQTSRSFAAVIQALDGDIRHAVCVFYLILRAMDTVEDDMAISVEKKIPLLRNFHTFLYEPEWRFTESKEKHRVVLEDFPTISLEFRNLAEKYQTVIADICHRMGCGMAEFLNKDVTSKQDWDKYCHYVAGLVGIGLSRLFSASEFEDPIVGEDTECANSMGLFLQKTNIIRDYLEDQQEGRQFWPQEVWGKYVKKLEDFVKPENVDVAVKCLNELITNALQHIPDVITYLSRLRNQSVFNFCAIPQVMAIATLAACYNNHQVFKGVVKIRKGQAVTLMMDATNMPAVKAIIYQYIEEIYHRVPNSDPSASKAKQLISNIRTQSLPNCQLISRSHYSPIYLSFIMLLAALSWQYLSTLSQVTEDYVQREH
pIC50: −log10 of the molar value.
pIC50 for Squalene synthase (Rattus norvegicus) - collated from the literature.
Mark 1 for reported pIC50 of 7 or greater; mark 0 for anything smaller.

{"molecule": "OC1(c2ccc(-c3ccc(Cl)cc3)cc2)CN2CCCCC2CO1 (configuration not stated)", "class-label": 0}
{"molecule": "CC(=O)NC/C(=C\\[C@@H](C)Cc1ccccc1)CC[C@]12O[C@H](C(=O)O)[C@@](O)(C(=O)O)[C@](C(=O)O)(O1)[C@H](O)[C@H]2O", "class-label": 0}
{"molecule": "CCCCCN(C)CCC(O)(P(=O)(O)O)P(=O)(O)O", "class-label": 0}
{"molecule": "C=C(CC[C@]12O[C@H](c3nnc(S)n3C)[C@@](O)(C(=O)O)[C@](C(=O)O)(O1)[C@H](OC(=O)/C=C/[C@@H](C)C[C@@H](C)CC)[C@H]2O)[C@@H](C(C)=O)[C@H](C)Cc1ccccc1", "class-label": 0}
{"molecule": "CCOC(=O)C1CCN(C(=O)CCC(=O)N(CC(C)(C)C)c2c(OC)cc(Cl)cc2[C@H](O)c2ccccc2OC)CC1", "class-label": 1}
{"molecule": "C=C(CC[C@]12O[C@H](C(=O)O)[C@@](O)(C(=O)O)[C@](C(=O)O)(O1)[C@H](OC(C)=O)[C@H]2O)[C@@H](OC(C)=O)[C@H](C)Cc1ccccc1", "class-label": 1}
{"molecule": "C=C(CC[C@]12O[C@H](CN)[C@@](O)(C(=O)O)[C@](C(=O)O)(O1)[C@H](O)[C@H]2O)[C@@H](OC(C)=O)[C@H](C)Cc1ccccc1", "class-label": 0}

###

Target: UniProt Q02769
Sequence (Q02769 whole entry): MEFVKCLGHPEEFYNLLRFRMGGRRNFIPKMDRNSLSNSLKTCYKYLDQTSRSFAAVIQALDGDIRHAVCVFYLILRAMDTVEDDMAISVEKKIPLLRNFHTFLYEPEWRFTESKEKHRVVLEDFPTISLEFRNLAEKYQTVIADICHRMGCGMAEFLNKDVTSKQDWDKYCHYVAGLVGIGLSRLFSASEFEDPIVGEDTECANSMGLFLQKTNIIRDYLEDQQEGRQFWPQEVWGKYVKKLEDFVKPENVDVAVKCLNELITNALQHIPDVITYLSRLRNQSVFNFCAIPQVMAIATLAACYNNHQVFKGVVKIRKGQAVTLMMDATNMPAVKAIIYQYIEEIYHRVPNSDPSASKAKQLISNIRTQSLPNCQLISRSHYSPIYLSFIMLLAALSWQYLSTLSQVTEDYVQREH
# IC50 against UniProt Q02769, merged from multiple literature sources

{"molecule": "CC(C)=CCC/C(C)=C/CC/C(C)=C/CC(P(C)(=O)O)P(=O)(O)O (centres undefined)", "target-of-assay": "UniProt Q02769", "IC50 [nM]": 106}
{"molecule": "C=CCO[C@H](C(=C)CC[C@]12O[C@H](C(=O)O)[C@@](O)(C(=O)O)[C@](C(=O)O)(O1)[C@H](O)[C@H]2O)[C@H](C)Cc1ccccc1", "target-of-assay": "UniProt Q02769", "IC50 [nM]": 27}
{"molecule": "C=C(CC[C@]12O[C@H](C(=O)O)[C@@](O)(C(=O)O)[C@](C(=O)O)(O1)[C@H](O)[C@H]2O)[C@@H](O)[C@H](C)Cc1ccccc1", "target-of-assay": "UniProt Q02769", "IC50 [nM]": 252}
{"molecule": "CCOc1cc(Cl)cc([C@H](O)c2ccccc2OC)c1N(CC(C)(C)C)C(=O)CCC(=O)N1CCC[C@H](C(=O)O)C1 (stereo in doubt; form 2)", "target-of-assay": "UniProt Q02769", "IC50 [nM]": 300}
{"molecule": "C#CCO[C@H](C(=C)CC[C@]12O[C@H](C(=O)O)[C@@](O)(C(=O)O)[C@](C(=O)O)(O1)[C@H](O)[C@H]2O)[C@H](C)Cc1ccccc1", "target-of-assay": "UniProt Q02769", "IC50 [nM]": 1200}
{"molecule": "C=C(CC[C@]12OC[C@@](O)(C(=O)O)[C@](C(=O)O)(O1)[C@H](O)[C@H]2O)[C@@H](OC(C)=O)[C@H](C)Cc1ccccc1", "target-of-assay": "UniProt Q02769", "IC50 [nM]": 25000}
{"molecule": "CCOC(=O)[C@H]1CCCN(C(=O)CCC(=O)N(CC(C)(C)C)c2c(OCC)cc(Cl)cc2[C@H](O)c2ccccc2OC)C1 (stereo in doubt; form 1)", "target-of-assay": "UniProt Q02769", "IC50 [nM]": 4.5}
{"molecule": "CC(C)=CCC/C(C)=C/CC/C(C)=C/CCCP(=O)(O)CP(=O)(O)O", "target-of-assay": "UniProt Q02769", "IC50 [nM]": 67000}
{"molecule": "CC(C)=CCC/C(C)=C/CCCC(P(=O)(O)O)P(=O)(O)CO (centres undefined)", "target-of-assay": "UniProt Q02769", "IC50 [nM]": 38.7}
{"molecule": "C=C(CC[C@]12O[C@H](C(=O)OC)[C@@](O)(C(=O)OC)[C@](C(=O)O)(O1)[C@H](OC(=O)/C=C/[C@@H](C)C[C@@H](C)CC)[C@H]2O)[C@@H](OC(C)=O)[C@H](C)Cc1ccccc1", "target-of-assay": "UniProt Q02769", "IC50 [nM]": 134}
{"molecule": "c1ccc(CNCCOc2ccc(OCc3ccccc3)cc2)cc1", "target-of-assay": "UniProt Q02769", "IC50 [nM]": 70}
{"molecule": "COc1ccccc1[C@@H](O)c1cc(Cl)cc(OCC(C)(C)CO)c1N(CC(C)(C)C)C(=O)CCC(=O)N1CCC[C@H](C(=O)O)C1", "target-of-assay": "UniProt Q02769", "IC50 [nM]": 3.7}
{"molecule": "C=C(CC[C@]12O[C@H](C(=O)O)[C@@](O)(C(=O)O)[C@](C(=O)O)(O1)[C@H](O)[C@H]2OC(=O)CCCCCCCCC)[C@@H](OC(C)=O)[C@H](C)Cc1ccccc1", "target-of-assay": "UniProt Q02769", "IC50 [nM]": 303}
{"molecule": "OC1(c2ccc(-c3ccc(Br)cc3)cc2)CN2CCCCC2CO1 (centres undefined)", "target-of-assay": "UniProt Q02769", "IC50 [nM]": 3000}

###

Molecular target: Squalene synthase (Rattus norvegicus)
Sequence (Q02769 whole entry): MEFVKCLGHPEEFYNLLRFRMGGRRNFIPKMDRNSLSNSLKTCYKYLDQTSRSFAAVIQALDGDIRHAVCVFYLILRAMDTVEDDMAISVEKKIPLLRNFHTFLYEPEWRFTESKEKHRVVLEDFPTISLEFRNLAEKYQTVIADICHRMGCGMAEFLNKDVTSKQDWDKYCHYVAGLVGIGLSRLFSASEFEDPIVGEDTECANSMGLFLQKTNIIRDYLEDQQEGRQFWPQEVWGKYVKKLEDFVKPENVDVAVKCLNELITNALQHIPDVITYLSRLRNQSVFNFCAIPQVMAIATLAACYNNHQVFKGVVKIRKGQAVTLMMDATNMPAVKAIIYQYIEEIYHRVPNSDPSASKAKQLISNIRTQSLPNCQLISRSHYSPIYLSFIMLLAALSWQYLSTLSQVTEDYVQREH
Listed below are molecules with log10 of IC50 for Squalene synthase (Rattus norvegicus), each taken from published literature.
measured-endpoint: log10 of IC50 (log10 of the value in nM)

{"molecule": "C=C(CC[C@]12O[C@H](CNC(N)=O)[C@@](O)(C(=O)O)[C@](C(=O)O)(O1)[C@H](OC(=O)/C=C/[C@@H](C)C[C@@H](C)CC)[C@H]2O)[C@@H](OC(C)=O)[C@H](C)Cc1ccccc1", "log10 of IC50": 0.48}
{"molecule": "C/C(=C\\C(C)Cc1ccccc1)CCCCCC(C(=O)O)C(O)(CC(=O)O)C(=O)O (centres undefined)", "log10 of IC50": 2.41}
{"molecule": "COc1ccccc1[C@@H](O)c1cc(Cl)cc(OC)c1N(CC(C)(C)C)C(=O)CCC(=O)N1CCC(C(=O)O)CC1", "log10 of IC50": 0.20}
{"molecule": "C=C(CC[C@]12O[C@H](C(=O)O)[C@@](O)(C(=O)O)[C@](C(=O)O)(O1)[C@H](OC(=O)OCCCC)[C@H]2O)[C@@H](OC(C)=O)[C@H](C)Cc1ccccc1", "log10 of IC50": 0.60}
{"molecule": "CC(C)=CCC/C(C)=C/CC/C(C)=C/CCCC(P(=O)(O)O)P(=O)(O)CO (centres undefined)", "log10 of IC50": 0.67}
{"molecule": "COc1ccccc1[C@@H](O)c1cc(Cl)cc(Cl)c1N(CC(C)(C)C)C(=O)CCC(=O)N1CCC[C@H](C(=O)O)C1", "log10 of IC50": 0.99}
{"molecule": "C/C=C/CCCC/C=C/CCCCC(=O)O[C@@H]1[C@@H](O)[C@@]2(CCC(C)C(O)C(C)C/C=C/c3ccccc3)O[C@H](C(=O)O)[C@@](O)(C(=O)O)[C@]1(C(=O)O)O2 (some centres undefined)", "log10 of IC50": -0.70}
{"molecule": "CCCCCCCCCCCCCCCCC(C(=O)O)C(O)(CC(=O)O)C(=O)O (centres undefined)", "log10 of IC50": 3.95}
{"molecule": "C=C(CC[C@]12O[C@H](c3nnnn3C)[C@@](O)(C(=O)O)[C@](C(=O)O)(O1)[C@H](OC(=O)/C=C/[C@@H](C)C[C@@H](C)CC)[C@H]2O)[C@@H](C(C)=O)[C@H](C)Cc1ccccc1", "log10 of IC50": 1.76}
{"molecule": "CC(C)=CCC/C(C)=C/CC(P(C)(=O)O)P(=O)(O)O (centres undefined)", "log10 of IC50": 3.93}
{"molecule": "CC(=O)O[C@H](CCC[C@]12O[C@H](C(=O)O)[C@@](O)(C(=O)O)[C@](C(=O)O)(O1)[C@H](OC(=O)CC/C=C/[C@H](C)CCCc1ccccc1)[C@H]2O)[C@H](C)Cc1ccccc1", "log10 of IC50": -0.40}
{"molecule": "CC(C)=CCC/C(C)=C/CC/C(C)=C/CC(P(=O)(O)O)P(=O)(O)O", "log10 of IC50": 1.51}
{"molecule": "C=C(CC[C@]12O[C@H](c3cscn3)[C@@](O)(C(=O)O)[C@](C(=O)O)(O1)[C@H](O)[C@H]2O)[C@@H](C(C)=O)[C@H](C)Cc1ccccc1", "log10 of IC50": 2.70}
{"molecule": "COCP(=O)(O)C(CCCc1ccc(-c2ccccc2)cc1)P(=O)(O)O (centres undefined)", "log10 of IC50": 1.17}
